Test Description: pharmacokinetics in plasma and brain after intraperitoneal administration (UPLC-MS/MS)
Type: in vivo, mouse
Test Settings: male mice; i.p. 5 mg/kg
Measured B:P ratio (brain to plasma AUC ratio) of individual entries
Reply with just the number.

Previously resolved entries follow.
1) N[C@]1(c2ccccc2Cl)C[C@H](O)CCC1=O [(2S,4R)-HNK] : 0.9
2) N[C@]1(c2ccccc2Cl)CC[C@@H](O)CC1=O [(2S,5R)-HNK] : 0.7
3) N[C@]1(c2ccccc2Cl)CC[C@H](O)CC1=O [(2S,5S)-HNK] : 1.2
4) N[C@@]1(c2ccccc2Cl)CC[C@@H](O)CC1=O [(2R,5R)-HNK] : 1.2
5) N[C@@]1(c2ccccc2Cl)C[C@H](O)CCC1=O [(2R,4R)-HNK] : 1.3

Looking up N[C@]1(c2ccccc2Cl)C[C@@H](O)CCC1=O [(2S,4S)-HNK] , I found its B:P ratio (brain to plasma AUC ratio) recorded as 0.7

B:P ratio (brain to plasma AUC ratio) measured on N[C@@]1(c2ccccc2Cl)C[C@@H](O)CCC1=O [(2R,4S)-HNK] = 1.1

Form: molecule = N[C@@]1(c2ccccc2Cl)CC[C@H](O)CC1=O [(2R,5S)-HNK] ; B:P ratio (brain to plasma AUC ratio) = 0.9
